- TEST SYSTEM: Vps34 enzyme (Homo sapiens (Human), UniProt Q8NEB9)
- Sequence (Q8NEB9 whole entry): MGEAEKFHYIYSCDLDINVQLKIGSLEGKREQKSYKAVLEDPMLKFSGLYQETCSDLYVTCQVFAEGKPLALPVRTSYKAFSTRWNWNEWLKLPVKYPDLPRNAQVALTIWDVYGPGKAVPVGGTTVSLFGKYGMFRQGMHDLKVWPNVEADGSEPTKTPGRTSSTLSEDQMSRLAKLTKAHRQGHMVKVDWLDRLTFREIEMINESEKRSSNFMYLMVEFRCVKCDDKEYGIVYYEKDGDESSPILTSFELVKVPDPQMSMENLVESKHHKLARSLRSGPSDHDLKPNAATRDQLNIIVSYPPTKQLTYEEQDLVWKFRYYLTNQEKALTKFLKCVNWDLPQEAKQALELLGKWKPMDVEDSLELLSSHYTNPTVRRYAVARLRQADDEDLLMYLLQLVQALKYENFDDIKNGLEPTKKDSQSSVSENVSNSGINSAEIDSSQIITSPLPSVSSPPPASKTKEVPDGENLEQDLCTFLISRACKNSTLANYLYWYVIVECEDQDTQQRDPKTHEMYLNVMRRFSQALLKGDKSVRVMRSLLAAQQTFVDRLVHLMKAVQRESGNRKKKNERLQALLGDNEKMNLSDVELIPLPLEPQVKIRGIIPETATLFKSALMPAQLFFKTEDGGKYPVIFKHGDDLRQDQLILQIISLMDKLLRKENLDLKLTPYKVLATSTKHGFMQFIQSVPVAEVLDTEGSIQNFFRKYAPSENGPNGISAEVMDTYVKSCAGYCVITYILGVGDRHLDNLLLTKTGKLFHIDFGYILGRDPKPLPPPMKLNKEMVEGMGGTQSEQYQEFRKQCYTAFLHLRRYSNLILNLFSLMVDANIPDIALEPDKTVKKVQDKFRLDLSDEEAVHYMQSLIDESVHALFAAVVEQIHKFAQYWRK
- PROTOCOL TEXT: Vps34 biochemical assay (Adapta kinase assay)
- STATED CONDITIONS: 20 μM ATP and 200 μM PI:PS in substrate mix, 1 h at room temperature, read-out: Median IC50 uM Adapta
READOUT NAME: IC50 (µM)
Return type: number; implicit unit µM.

These recorded examples may help you get a feel for the data.
INSERT INTO results (compound, readout_name, unit_descriptor, reported) VALUES
  ('C[C@@H]1COCCN1c1cc(N2CCCC2c2cnn(C)c2)[nH]c(=O)c1 (single isomer, unassigned) [Example 19_2]', 'IC50', 'µM', 0.3),
  ('Cc1ccc(C2CCCN2c2cc(N3CCOC[C@H]3C)cc(=O)[nH]2)o1 (single isomer, unassigned) [Example 22_2]', 'IC50', 'µM', 0.1),
  ('C[C@@H]1COCCN1c1cc(N2CCCC2c2cccc(Cl)c2)[nH]c(=O)c1 (mixture of isomers) [Example 36]', 'IC50', 'µM', 0.02),
  ('CC1COCCN1c1cc(N2CCCC2c2ccccc2)[nH]c(=O)c1 (stereo not shown)', 'IC50', 'µM', 0.02),
  ('C[C@@H]1COCCN1c1cc(N2CCCC2c2cccc(C(F)(F)F)c2)[nH]c(=O)c1 (single isomer, unassigned) [Example 16_1]', 'IC50', 'µM', 0.03);

Fill in the blank: the reported IC50 of COC(C)(C)C1CCCN1c1cc(N2CCOC[C@H]2C)cc(=O)[nH]1 (single isomer, unassigned) [Example 11_1] is ____.
0.2

Fill in the blank: the reported IC50 of C[C@@H]1COCCN1c1cc(N2CCCC2C(=O)N(C)C)[nH]c(=O)c1 (stereo partly shown) is ____.
0.4

----------
- TEST SYSTEM: Vps34 enzyme (Homo sapiens (Human))
- PROTOCOL TEXT: Vps34 biochemical assay (Adapta kinase assay)
- STATED CONDITIONS: 20 μM ATP and 200 μM PI:PS in substrate mix, 1 h at room temperature, read-out: Median IC50 uM Adapta
- Protocol: Dilution series of compounds of the invention were prepared in DMSO at 100 times the final assay concentration (n1=n0/3 in 10 points). […] The assay plate was then incubated at room temperature for 30 min and read with Artemis micro plate reader. Percent inhibition of the compounds as compared to DMSO treated control samples was calculated. […]
The following molecules are listed with their measured IC50 values.
Return type: number; implicit unit µM.

These recorded examples may help you get a feel for the data.
INSERT INTO results (molecule, test_system, readout_name, reported) VALUES
  ('C[C@@H]1COCCN1c1cc(N2CCCC2c2ccccn2)[nH]c(=O)c1 (single isomer, unassigned) [Example 38_2]', 'Vps34 enzyme (Homo sapiens (Human))', 'IC50', 0.2),
  ('COc1cccc(C2CCCN2c2cc(N3CCOCC3C)cc(=O)[nH]2)c1 (stereo not shown)', 'Vps34 enzyme (Homo sapiens (Human))', 'IC50', 0.004),
  ('C[C@@H]1COCCN1c1cc(N2CCC[C@H]2C(F)(F)F)[nH]c(=O)c1', 'Vps34 enzyme (Homo sapiens (Human))', 'IC50', 0.1);

# context switch: different molecule, same IC50
Fill in the blank: the reported IC50 of Cc1cc(C2CCCN2c2cc(N3CCOC[C@H]3C)cc(=O)[nH]2)no1 (mixture of isomers) [Example 40] is ____.
0.1

----------
The following compounds are listed with their measured IC50 values.
- TEST SYSTEM: Vps34 enzyme (Homo sapiens (Human))
- PROTOCOL TEXT: Vps34 biochemical assay (Adapta kinase assay)
- STATED CONDITIONS: 20 μM ATP and 200 μM PI:PS in substrate mix, 1 h at room temperature, read-out: Median IC50 uM Adapta
Return type: number; implicit unit µM.

These recorded examples may help you get a feel for the data.
INSERT INTO measurements (compound, readout_name, reported) VALUES
  ('Cc1cc(C2CCCN2c2cc(N3CCOC[C@H]3C)cc(=O)[nH]2)no1 (single isomer, unassigned) [Example 40_1]', 'IC50', 0.1),
  ('C[C@@H]1COCCN1c1cc(N2CCCC[C@@H]2c2ccccc2)[nH]c(=O)c1 [Example 30]', 'IC50', 0.008);

Fill in the blank: the reported IC50 of C[C@@H]1COCCN1c1cc(N2CCOCC2c2ccccc2)[nH]c(=O)c1 (mixture of isomers) [Example 26] is ____.
0.06

----------
The following compounds are listed with their measured log10 IC50 values.
- TEST SYSTEM: Vps34 enzyme (Homo sapiens (Human), UniProt Q8NEB9)
- PROTOCOL TEXT: Vps34 biochemical assay (Adapta kinase assay)
- STATED CONDITIONS: 20 μM ATP and 200 μM PI:PS in substrate mix, 1 h at room temperature, read-out: Median IC50 uM Adapta
Hello, just confirming the data are log10 of IC50 with units of µM.

These recorded examples may help you get a feel for the data.
INSERT INTO measurements (compound, reported) VALUES
  ('COc1cccc(C2CCCN2c2cc(N3CCOC[C@H]3C)cc(=O)[nH]2)c1 (single isomer, unassigned) [Example 17_2]', -2.22),
  ('C[C@@H]1COCCN1c1cc(N2CCN(C)CC2C(F)(F)F)[nH]c(=O)c1 (stereo partly shown) [Example 49]', -1.52),
  ('C[C@@H]1COCCN1c1cc(N2CCCC[C@@H]2C(F)(F)F)n(C)c(=O)c1 [Example 41]', -2.00),
  ('CC(=O)N1CCN(c2cc(N3CCOC[C@H]3C)cc(=O)[nH]2)CC1 [Example 29]', -0.70),
  ('C[C@@H]1COCCN1c1cc(N2CCOCC2C(F)(F)F)[nH]c(=O)c1 (stereo partly shown) [Example 32]', -2.22),
  ('COc1cccc(C2CCCN2c2cc(N3CCOC[C@H]3C)cc(=O)[nH]2)c1 (single isomer, unassigned) [Example 17_1]', -1.70);

# context switch: different compound, same log10 IC50
Fill in the blank: the reported log10 IC50 of C[C@@H]1COCCN1c1cc(N2CCCC2c2cccc(OC(F)(F)F)c2)[nH]c(=O)c1 (single isomer, unassigned) [Example 15_1] is ____.
-0.70

----------
- TEST SYSTEM: UniProt:Q8NEB9
- PROTOCOL TEXT: Vps34 biochemical assay (Adapta kinase assay)
- STATED CONDITIONS: 20 μM ATP and 200 μM PI:PS in substrate mix, 1 h at room temperature, read-out: Median IC50 uM Adapta
READOUT NAME: IC50 (µM)
Return type: number; implicit unit µM.

INSERT INTO assay_data (molecule, reported) VALUES
  ('CC1COCCN1c1cc(N2CCOC[C@H]2C)cc(=O)[nH]1 (mixture of isomers) [Example 24]', 0.03);

UniProt:Q8NEB9 / IC50 / CCn1ccc(C2CCCN2c2cc(N3CCOC[C@H]3C)cc(=O)[nH]2)n1 (mixture of isomers) [Example 21] : value?
0.06

UniProt:Q8NEB9 / IC50 / C[C@@H]1COCCN1c1cc(N2CCOCC2c2ccccc2)[nH]c(=O)c1 (single isomer, unassigned) [Example 26_1] : value?
0.04

UniProt:Q8NEB9 / IC50 / C[C@@H]1COCCN1c1cc(N2CCCC2c2nccs2)[nH]c(=O)c1 (mixture of isomers) : value?
0.05

UniProt:Q8NEB9 / IC50 / C[C@@H]1COCCN1c1cc(N2CCCC2c2ccccc2)[nH]c(=O)c1 (single isomer, unassigned) [Example 18_1] : value?
0.07

UniProt:Q8NEB9 / IC50 / `C[C@@H]1COCCN1c1cc(N2CCOCC23CCC3)[nH]c(=O)c1` : value?
0.03

UniProt:Q8NEB9 / IC50 / CC1COCCN1c1cc(N2CCOC[C@H]2C)cc(=O)[nH]1 (single isomer, unassigned) [Example 24_2] : value?
0.2

UniProt:Q8NEB9 / IC50 / `O=c1cc(N2CCOCC2)cc(N2CCC[C@@H]2c2ccccc2)[nH]1` : value?
0.05

----------
- TEST SYSTEM: Vps34 enzyme (Homo sapiens (Human), UniProt Q8NEB9)
- PROTOCOL TEXT: Vps34 biochemical assay (Adapta kinase assay)
- STATED CONDITIONS: 20 μM ATP and 200 μM PI:PS in substrate mix, 1 h at room temperature, read-out: Median IC50 uM Adapta
Label fulfilled when IC50 is strictly below 0.08 µM; otherwise label not fulfilled.

Please review the entries below; each comes with its answer.
INSERT INTO measurements (molecule, test_system, group) VALUES
  ('C[C@@H]1COCCN1c1cc(N2CCCC2c2ccccn2)[nH]c(=O)c1 (single isomer, unassigned) [Example 38_1]', 'Vps34 enzyme (Homo sapiens (Human), UniProt Q8NEB9)', 'fulfilled'),
  ('C[C@@H]1COCCN1c1cc(N2CCCC2c2cccc(OC(F)(F)F)c2)[nH]c(=O)c1 (mixture of isomers) [Example 15]', 'Vps34 enzyme (Homo sapiens (Human), UniProt Q8NEB9)', 'fulfilled'),
  ('COc1cccc(C2CCCCN2c2cc(N3CCOC[C@H]3C)cc(=O)[nH]2)c1 (single isomer, unassigned) [Example 44_1]', 'Vps34 enzyme (Homo sapiens (Human), UniProt Q8NEB9)', 'fulfilled'),
  ('O=c1cc(N2CCOCC2)cc(N2CCC[C@H]2c2ccccc2)[nH]1 [Example 3]', 'Vps34 enzyme (Homo sapiens (Human), UniProt Q8NEB9)', 'not fulfilled'),
  ('C[C@@H]1COCCN1c1cc(N2CCCCC2C(F)(F)F)[nH]c(=O)c1 (mixture of isomers) [Example 25]', 'Vps34 enzyme (Homo sapiens (Human), UniProt Q8NEB9)', 'fulfilled'),
  ('COc1cccc(C2CCCCN2c2cc(N3CCOC[C@H]3C)cc(=O)[nH]2)c1 (single isomer, unassigned) [Example 44_2]', 'Vps34 enzyme (Homo sapiens (Human), UniProt Q8NEB9)', 'fulfilled');

Lab note: confirm whether the reported IC50 for this molecule is below 0.08 µM, equality not counting. molecule: Cc1cc(C2CCCN2c2cc(N3CCOC[C@H]3C)cc(=O)[nH]2)nn1C (single isomer, unassigned) [Example 20_2]
not fulfilled

Lab note: confirm whether the reported IC50 for this molecule is below 0.08 µM, equality not counting. molecule: C[C@@H]1COCCN1c1cc(N2CCOCC2C2CC2)[nH]c(=O)c1 (stereo partly drawn) [Example 33]
fulfilled

Lab note: confirm whether the reported IC50 for this molecule is below 0.08 µM, equality not counting. molecule: C[C@@H]1COCCN1c1cc(N2CCOCC2c2ccccc2)[nH]c(=O)c1 (single isomer, unassigned) [Example 26_2]
not fulfilled

Lab note: confirm whether the reported IC50 for this molecule is below 0.08 µM, equality not counting. molecule: C[C@@H]1COCCN1c1cc(N2CCOCC2C(F)(F)F)[nH]c(=O)c1 (single isomer, unassigned) [Example 43_2]
not fulfilled

Lab note: confirm whether the reported IC50 for this molecule is below 0.08 µM, equality not counting. molecule: CC1COCCN1c1cc(N2CCOC[C@H]2C)cc(=O)[nH]1 (single isomer, unassigned) [Example 24_1]
fulfilled
